Every entry's value here was drawn from ChEMBL document CHEMBL2010664.

Target: Inhibitor of nuclear factor kappa-B kinase subunit epsilon (Homo sapiens)
Sequence (Q14164 whole entry): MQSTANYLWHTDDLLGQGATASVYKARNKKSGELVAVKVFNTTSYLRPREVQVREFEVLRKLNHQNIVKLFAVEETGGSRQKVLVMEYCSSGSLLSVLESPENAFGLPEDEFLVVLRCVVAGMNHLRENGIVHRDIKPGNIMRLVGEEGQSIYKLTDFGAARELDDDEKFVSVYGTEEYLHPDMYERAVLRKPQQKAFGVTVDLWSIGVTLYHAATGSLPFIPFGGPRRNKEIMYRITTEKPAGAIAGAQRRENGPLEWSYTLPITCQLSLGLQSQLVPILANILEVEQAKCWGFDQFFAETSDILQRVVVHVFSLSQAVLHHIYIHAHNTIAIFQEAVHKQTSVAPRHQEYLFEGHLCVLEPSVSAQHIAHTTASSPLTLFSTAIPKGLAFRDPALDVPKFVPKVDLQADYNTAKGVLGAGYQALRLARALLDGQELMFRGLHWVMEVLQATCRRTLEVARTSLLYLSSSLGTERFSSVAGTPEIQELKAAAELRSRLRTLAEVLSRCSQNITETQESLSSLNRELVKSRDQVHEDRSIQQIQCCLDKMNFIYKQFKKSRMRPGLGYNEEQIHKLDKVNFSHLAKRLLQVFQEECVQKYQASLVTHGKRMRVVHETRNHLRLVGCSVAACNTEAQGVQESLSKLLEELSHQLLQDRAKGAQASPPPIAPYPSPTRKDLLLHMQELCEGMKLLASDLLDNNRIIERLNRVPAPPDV
Readout Kind: IC50 (nM)

[[record]]
chemical_string = "Brc1cnc2nc(-c3ccc(OCCN4CCCCC4)cc3)[nH]c2c1NCCC1CCNCC1"
assay_system = "Inhibitor of nuclear factor kappa-B kinase subunit epsilon (Homo sapiens)"
numeric_value = 4320

[[record]]
chemical_string = "COc1ccc(-c2nc3c(NCC4CCNCC4)c(Br)cnc3[nH]2)cc1"
assay_system = "Inhibitor of nuclear factor kappa-B kinase subunit epsilon (Homo sapiens)"
numeric_value = 265

[[record]]
chemical_string = "CNc1c(Br)cnc2[nH]c(-c3ccc(N)cc3)nc12"
assay_system = "Inhibitor of nuclear factor kappa-B kinase subunit epsilon (Homo sapiens)"
numeric_value = 425


1: CNc1c(Br)cnc2nc(-c3ccc(C(=O)O)cc3)[nH]c12
2: CNc1c(Br)cnc2[nH]c(-c3cccc(N)c3)nc12
Which shows the larger IC50 value: 1 or 2 ? Your choice should be expressed through its label.
1

I: CNc1c(Br)cnc2[nH]c(-c3ccc(N4CCCC4)cc3)nc12
II: Brc1cnc2nc(-c3ccc(OCCN4CCCCC4)cc3)[nH]c2c1NCC1CCNCC1
Which shows the larger IC50 value: I or II ? Your choice should be expressed through its label.
I
